- tested.on: MET D1228N (Homo sapiens, UniProt P08581, D1228N)
- Construct: purchased Signalchem M52-12IG
- Sequence (P08581 25-1390 D1228N): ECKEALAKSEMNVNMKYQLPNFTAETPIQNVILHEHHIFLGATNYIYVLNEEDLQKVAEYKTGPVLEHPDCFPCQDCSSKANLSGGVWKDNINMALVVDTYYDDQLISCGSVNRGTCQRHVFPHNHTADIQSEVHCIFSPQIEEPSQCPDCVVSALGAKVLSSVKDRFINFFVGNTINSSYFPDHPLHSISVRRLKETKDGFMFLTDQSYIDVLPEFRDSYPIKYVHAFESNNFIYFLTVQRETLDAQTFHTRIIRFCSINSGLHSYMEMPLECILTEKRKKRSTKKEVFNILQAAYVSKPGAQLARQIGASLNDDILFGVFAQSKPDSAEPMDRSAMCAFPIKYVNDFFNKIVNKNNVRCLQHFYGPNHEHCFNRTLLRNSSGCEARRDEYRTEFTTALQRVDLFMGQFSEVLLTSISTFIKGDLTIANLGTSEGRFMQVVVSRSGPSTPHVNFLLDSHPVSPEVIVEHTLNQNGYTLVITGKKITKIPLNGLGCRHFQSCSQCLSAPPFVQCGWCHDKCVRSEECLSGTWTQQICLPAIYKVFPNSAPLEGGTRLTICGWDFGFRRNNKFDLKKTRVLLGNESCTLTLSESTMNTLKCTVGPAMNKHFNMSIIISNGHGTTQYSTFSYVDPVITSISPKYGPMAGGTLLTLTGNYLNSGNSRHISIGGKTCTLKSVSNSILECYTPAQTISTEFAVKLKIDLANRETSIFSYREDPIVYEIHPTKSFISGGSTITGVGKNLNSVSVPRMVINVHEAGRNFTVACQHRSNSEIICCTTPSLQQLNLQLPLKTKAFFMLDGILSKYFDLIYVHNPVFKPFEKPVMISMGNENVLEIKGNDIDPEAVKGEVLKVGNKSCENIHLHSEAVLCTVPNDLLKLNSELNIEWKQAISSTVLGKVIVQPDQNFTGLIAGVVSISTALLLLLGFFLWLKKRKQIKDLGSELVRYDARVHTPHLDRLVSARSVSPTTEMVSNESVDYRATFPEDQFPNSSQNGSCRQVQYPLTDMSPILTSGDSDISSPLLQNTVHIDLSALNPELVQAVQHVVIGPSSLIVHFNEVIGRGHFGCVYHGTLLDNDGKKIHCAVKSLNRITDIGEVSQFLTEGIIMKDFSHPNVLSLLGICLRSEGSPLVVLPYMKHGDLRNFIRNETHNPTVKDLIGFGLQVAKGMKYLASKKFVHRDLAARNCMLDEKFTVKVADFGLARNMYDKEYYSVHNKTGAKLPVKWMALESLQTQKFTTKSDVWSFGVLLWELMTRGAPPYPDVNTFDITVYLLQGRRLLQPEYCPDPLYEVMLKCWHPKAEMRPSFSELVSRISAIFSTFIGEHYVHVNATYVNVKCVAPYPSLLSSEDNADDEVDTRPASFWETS
- experiment.description: Kinase inhibition experiment (HTRF KinEASE-TK kit), mutant MET D1228N
- Assay type: biochemical
- test.parameters: 10 concentrations, 3-fold dilution
- Procedure: The activity of the compounds was determined by detecting the residual amount of ATP after reacting with wild-type or mutant MET protein kinase by using an HTRF KinEASE-TK kit. […] 5) the fluorescence signals at 615 nm (cryptate) and 665 nm (XL665) were read with Envision 2104 or TECAN. […]
Recorded IC50 by entry
recorded.metric: IC50

* C[C@H](CO)Nc1n[nH]c2nccc(Oc3ccc(NC(=O)c4ccc(F)c(-c5ccc(F)cc5)[n+]4[O-])c(F)c3)c12 [Final product 155] | 27.4 nM
* CCc1ccc(C(=O)Nc2ccc(Oc3ccnc4[nH]nc(N[C@H](C)CO)c34)c(F)c2)[n+]([O-])c1-c1ccc(F)cc1 [Final product 80] | 9.8 nM
* C[C@H](CO)Nc1n[nH]c2nccc(Oc3ccc(NC(=O)c4ccc(OCC(F)(F)F)c(-c5ccc(F)cc5)[n+]4[O-])cc3Cl)c12 [Final product 142] | 45.1 nM

* * *

- tested.on: MET F1200I (Homo sapiens, UniProt P08581, F1200I)
- Construct: purchased Signalchem M52-12GG/Y767-2
- Sequence (P08581 25-1390 F1200I): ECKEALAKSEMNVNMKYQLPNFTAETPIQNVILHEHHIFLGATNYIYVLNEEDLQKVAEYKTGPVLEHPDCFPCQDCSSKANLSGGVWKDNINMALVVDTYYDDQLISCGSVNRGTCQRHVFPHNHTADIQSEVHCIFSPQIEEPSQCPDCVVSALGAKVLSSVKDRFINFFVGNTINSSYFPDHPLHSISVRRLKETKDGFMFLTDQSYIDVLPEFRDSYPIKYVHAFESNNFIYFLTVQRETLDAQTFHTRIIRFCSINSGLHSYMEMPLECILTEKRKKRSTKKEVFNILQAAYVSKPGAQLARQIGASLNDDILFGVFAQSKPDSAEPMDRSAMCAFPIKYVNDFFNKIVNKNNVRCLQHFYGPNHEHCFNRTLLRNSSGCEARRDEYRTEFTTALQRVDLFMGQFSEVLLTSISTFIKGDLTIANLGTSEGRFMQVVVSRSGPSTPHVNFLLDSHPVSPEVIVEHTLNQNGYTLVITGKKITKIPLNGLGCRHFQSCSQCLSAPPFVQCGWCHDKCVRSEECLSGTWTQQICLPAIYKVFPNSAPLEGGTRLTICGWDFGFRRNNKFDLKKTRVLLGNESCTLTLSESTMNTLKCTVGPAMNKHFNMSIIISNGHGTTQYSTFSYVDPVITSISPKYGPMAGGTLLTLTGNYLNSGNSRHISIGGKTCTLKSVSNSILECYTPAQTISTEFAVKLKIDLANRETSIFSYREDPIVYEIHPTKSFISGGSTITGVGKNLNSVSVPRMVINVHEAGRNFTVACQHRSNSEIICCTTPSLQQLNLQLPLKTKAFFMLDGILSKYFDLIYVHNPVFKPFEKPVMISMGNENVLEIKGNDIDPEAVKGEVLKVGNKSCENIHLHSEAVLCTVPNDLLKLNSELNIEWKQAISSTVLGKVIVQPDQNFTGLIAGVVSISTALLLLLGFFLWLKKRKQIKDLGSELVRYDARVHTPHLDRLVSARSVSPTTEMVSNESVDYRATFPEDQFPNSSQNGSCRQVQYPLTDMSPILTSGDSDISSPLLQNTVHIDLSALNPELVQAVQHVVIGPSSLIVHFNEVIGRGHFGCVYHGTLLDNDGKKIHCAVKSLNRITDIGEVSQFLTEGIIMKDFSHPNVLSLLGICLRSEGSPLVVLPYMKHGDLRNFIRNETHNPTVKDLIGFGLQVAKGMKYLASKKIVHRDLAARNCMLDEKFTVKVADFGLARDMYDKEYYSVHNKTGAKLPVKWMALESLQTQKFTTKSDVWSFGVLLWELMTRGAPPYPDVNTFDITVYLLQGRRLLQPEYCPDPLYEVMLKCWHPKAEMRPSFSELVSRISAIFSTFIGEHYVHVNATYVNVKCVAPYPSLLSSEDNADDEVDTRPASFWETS
- experiment.description: Kinase inhibition experiment (HTRF KinEASE-TK kit), mutant MET F1200I
- Format: biochemical
- test.parameters: 10 concentrations, 3-fold dilution
- Description: The activity of the compounds was determined by detecting the residual amount of ATP after reacting with wild-type or mutant MET protein kinase by using an HTRF KinEASE-TK kit. […] 5) the fluorescence signals at 615 nm (cryptate) and 665 nm (XL665) were read with Envision 2104 or TECAN. […]
Recorded IC50 by entry
recorded.metric: IC50 (nM)

• C[C@H](CO)Nc1n[nH]c2nccc(Oc3ccc(NC(=O)c4ccc(Cl)c(-c5ccc(F)cc5Cl)[n+]4[O-])cc3F)c12 = 35.5
• O=C(Nc1ccc(Oc2ccnc3[nH]nc(N4CC5(CC(O)C5)C4)c23)c(F)c1)c1cccc(-c2ccc(F)cc2)[n+]1[O-] = 6.7
• O=C(Nc1ccc(Oc2ccnc3[nH]nc(N[C@H]4CC[C@@H](O)C4)c23)c(Cl)c1)c1ccc(F)c(-c2ccc(F)cc2)[n+]1[O-] = 9.8
• O=C(Nc1ccc(Oc2ncnc3ccn(CCCO)c23)c(F)c1)c1cccc(-c2ccc(F)cc2)[n+]1[O-] = 9.2
• O=C(Nc1ccc(Oc2ccnc3[nH]nc(NC4COCC4O)c23)c(F)c1)c1cccc(-c2ccc(F)cc2)[n+]1[O-] (stereo not shown) = 9.5
• C[C@H](CO)Nc1n[nH]c2nccc(Oc3ccc(NC(=O)c4ccc(Cl)c(-c5ccc(F)cc5)[n+]4[O-])c(F)c3)c12 = 2
• C[C@H](CO)Nc1n[nH]c2nccc(Oc3ccc(NC(=O)c4ccc(C5CC5)c(-c5ccc(F)cc5)[n+]4[O-])cc3F)c12 = 26
• C[C@H](CO)Cn1ccc2ncnc(Oc3ccc(NC(=O)c4cccc(-c5ccc(F)cc5)[n+]4[O-])cc3F)c21 = 2.1
• C[C@H](CO)Nc1n[nH]c2nccc(Oc3ccc(NC(=O)c4ccc(F)c(-c5ccc(F)cc5)[n+]4[O-])cc3F)c12 = 8.7
• O=C(Nc1ccc(Oc2ccnc3[nH]nc(N[C@H]4COC[C@@H]4O)c23)c(Cl)c1)c1cccc(-c2ccc(F)cc2)[n+]1[O-] = 6
• O=C(Nc1ccc(Oc2ccnc3[nH]nc(N[C@H]4COC[C@@H]4O)c23)c(Cl)c1)c1ccc(Cl)c(-c2ccc(F)cc2)[n+]1[O-] = 10
• C[C@H](CO)Nc1n[nH]c2nccc(Oc3ccc(NC(=O)c4cccc(-c5ccc(Cl)cc5)[n+]4[O-])cc3F)c12 = 14.2
• CC1(O)CCN(c2n[nH]c3nccc(Oc4ccc(NC(=O)c5cccc(-c6ccc(F)cc6)[n+]5[O-])cc4F)c23)CC1 = 8.6
